Test: Solubility in different aqueous media at 37° C.
Assay type: physicochemical
Settings: sodium acetate buffer, 37 °C, pH 4.5, aqueous buffer, thermodynamic from solid, 0.05M sodium acetate buffer pH 4.5; 3 days; average of 3 replicates; read-out: Solubility, μg dissolved per mL at 37° C., Average

[
  {
    "Molecule": "C[C@@H]1CCC[C@H](n2cnc(-c3cc(Cl)ccc3-n3cc(Cl)nn3)cc2=O)c2cc(ccn2)-c2c(cnn2C(F)F)NC1=O [P1.Acetone solvate]",
    "solubility at 3 days (µg/mL)": 1.88
  }
]

* * *

Assay: Solubility of milvexian forms in organic solvent systems
Assay type: physicochemical
Conditions: 100% MeOH, 20 °C, organic solvent or mixture, 100% MeOH; temperature 20; read-out: Solubility in mg/mL solution
Property: solubility (mg/mL)

[
  {
    "Compound": "C[C@@H]1CCC[C@H](n2cnc(-c3cc(Cl)ccc3-n3cc(Cl)nn3)cc2=O)c2cc(ccn2)-c2c(cnn2C(F)F)NC1=O [Milvexian]",
    "Measured": 4.2
  }
]

These entries and their values trace back to patent US20260224494A1.
